Listed next: entries and their corresponding Ratio EC50.
- test.summary: Ratio of EC50 for human HepG2 cells to EC50 for Plasmodium falciparum 3D7 infected in human erythrocytes
experimental.endpoint: Ratio EC50

| smiles.repr | test.value |
| --- | --- |
| COc1ccc(F)cc1CNCCCNc1ccnc2cc(Cc3cccc(C(F)(F)F)c3)ccc12 | 11 |
| c1ccc(CCc2ccc3c(NCCCNCc4ccc5c(c4)OCO5)ccnc3c2)cc1 | 380.3 |
| COc1ccc(F)cc1CNCCCNc1ccnc2cc(Oc3ccc(F)cc3)ccc12 | 22 |
| CC(C)Cc1ccc2c(NCCCNCc3ccco3)ccnc2c1 | 27.5 |
| Fc1ccc(Oc2ccc3c(NCCCNCc4ccco4)ccnc3c2)cc1 | 611 |
| COc1ccc(F)cc1CNCCCNc1ccnc2cc(-c3ccccc3)ccc12 | 276.4 |
| FC(F)(F)c1cccc(Cc2ccc3c(NCCCNCc4ccco4)ccnc3c2)c1 | 56.7 |
| Cc1cc(C)cc(Cc2ccc3c(NCCCNCc4ccco4)ccnc3c2)c1 | 712.1 |
| COc1cccc(CNCCCNc2ccnc3cc(-c4cccc5ccccc45)ccc23)c1O | 76.3 |
| Fc1ccc(Cc2ccc3c(NCCCNCc4ccc5c(c4)OCO5)ccnc3c2)cc1 | 43.7 |
| FC(F)(F)c1ccc(-c2ccc3c(NCCCNCc4ccco4)ccnc3c2)cc1 | 171 |
| COc1cccc(CNCCCNc2ccnc3cc(CCC(C)C)ccc23)c1O | 245.9 |
| COc1ccc(F)cc1CNCCCNc1ccnc2cc(Oc3ccc(Cl)cc3)ccc12 | 143 |
| COc1ccc(-c2ccc3c(NCCCNCc4ccco4)ccnc3c2)cc1 | 565.7 |
| COc1cccc(CNCCCNc2ccnc3cc(C4CCCCC4)ccc23)c1O | 58.1 |
| COc1cccc(CNCCCNc2ccnc3cc(-c4ccc(C(F)(F)F)cc4)ccc23)c1O | 166.2 |
| CCC(CC)c1ccc2c(NCCCNCc3cccc(OC)c3O)ccnc2c1 | 103.3 |
| COc1ccc(F)cc1CNCCCNc1ccnc2cc(Oc3ccccc3OC)ccc12 | 293 |
| COc1ccc(F)cc1CNCCCNc1ccnc2cc(CCC(C)C)ccc12 | 7.7 |
| COc1ccccc1Oc1ccc2c(NCCCNCc3ccco3)ccnc2c1 | 5014 |
| COc1ccc(F)cc1CNCCCNc1ccnc2cc(Cc3ccc4c(c3)OCO4)ccc12 | 194.7 |
| Fc1ccc(-c2ccc3c(NCCCNCc4ccco4)ccnc3c2)cc1 | 240.4 |

Source of measurements: ChEMBL document CHEMBL1833887
